Biological target: DN-III-NS antigen (produced by Fapon Biotech InC.) (dengue virus)
Test: capture ELISA, antibody sample 9-fold dilution
Below, each of the binders is paired with its reported OD450 (ref. 630 nm) value.
observation.type: OD450 (ref. 630 nm) (OD)

Mutation 1 (antibody, V domains shown) VH: EVQLQQSGTELVRPGALVKLSCKASGFNIKDYYVHWVKQRPRQGLEWIGWIDPENGKTLYDPKFQDKASITSDTSTNTAYLQLRSLTSEDTAVYYCVTAYVRFVYWGQGTLVTVSA VL: QIVLTQSPAIMSAFPGERVTMTCSASSSVRYMYWHQQKPGSSPRLLIYDTSNVASGVPVRFSGSGSGTSYSLTISRDEAMDAATYYCQQWSSTPRTFGGGTKLEIKR: 2.29
Mutation 4 (antibody, V domains shown) VH: EVQLQQSGTELVRPGALVKLSCKASGFNIKRYYVHWVKQRPRQGLEWIGWIDPRNGKTLYDPKVQDKASITSDTSTNTAYLQLRSLTSEDTAVYYCVTAYVRFVYWGQGTLVTVSA VL: QIVLTQSPAIMSAFPGERVTMTCSASSSVIYMYWHQQKPGSSPRLLIYWTSNVASGYPVRFSGSGSGTSYSLTISRDEAMDAATYYCQQVSSTPRTFGGGTKLEIKR: 0.014
Mutation 2 (antibody, V domains shown) VH: EVQLQQSGTELVRPGALVKLSCKASGFNIKDYYVHWVKQRPRQGLEWIGWIDPNNGKTLYDPKYQDKASITSDTSTNTAYLQLRSLTSEDTAVYYCVTAYVRFVYWGQGTLVTVSA VL: QIVLTQSPAIMSAFPGERVTMTCSASSSVRYMYWHQQKPGSSPRLLIYDTSNVASGVPVRFSGSGSGTSYSLTISRDEAMDAATYYCQQYSSTPRTFGGGTKLEIKR: 2.13
